Test system: biotinyl-Leu-oxazolone
Method summary: self-aminoacylation, catalytic enhancement (BLO) (fold over background); higher = more active; k-Seq, kA / k0A0; sequences stand for … in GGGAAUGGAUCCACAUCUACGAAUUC…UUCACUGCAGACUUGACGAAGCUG
Variants at the floor of the assay were thinned out.
Output Condition met for self-aminoacylation not less than 1; output Condition not met otherwise.

Item sequence	Assigned class
AAGUUUGCUGAUAGUCACAAG [Fam3.1 aminoacylation ribozyme variant]	Condition met
AAGUUUGCUAAUAGCCGCCAG [Fam3.1 aminoacylation ribozyme variant]	Condition met
CCACACUUCAGGCAAUCGGUC [Fam1B.1 aminoacylation ribozyme variant]	Condition met
AAGUUUGAUAAUAGUCGGAAG [Fam3.1 aminoacylation ribozyme variant]	Condition not met
CCACGCUUCAAGCAAUCCGUC [Fam1B.1 aminoacylation ribozyme variant]	Condition not met
AUUCACCUAGGACAUCGGGAG [Fam2.2 aminoacylation ribozyme variant]	Condition met
GUUCACCUAGGUCAUCGGGCG [Fam2.2 aminoacylation ribozyme variant]	Condition met
AUUACCCUGGUCAGCGUGUGA [Fam2.1 aminoacylation ribozyme variant]	Condition met
AUGCAACUAGGUCAUCGGGUG [Fam2.2 aminoacylation ribozyme variant]	Condition met

----------
Measured self-aminoacylation, listed per entry for reference.
System: biotinyl-Trp-oxazolone
Method summary: self-aminoacylation, catalytic enhancement (BWO) (fold over background); higher = more active; k-Seq, kA / k0A0; sequences stand for … in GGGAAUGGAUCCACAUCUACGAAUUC…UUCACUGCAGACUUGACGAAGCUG
Fewer inactive variants are shown than the library holds.

Item sequence	self-aminoacylation
CCACACUUCAUGCAAUCGAUC [Fam1B.1 aminoacylation ribozyme variant]	0.336
AUUACCCGGGUCAUGGAGUGA [Fam2.1 aminoacylation ribozyme variant]	4.98
AUUACCGUGGUCAUCGAGUUA [Fam2.1 aminoacylation ribozyme variant]	0.691
AUUACCAUGGUCCUCGAGUGA [Fam2.1 aminoacylation ribozyme variant]	4.82
CUACUUCAAACAAUUGGUGUG [Fam1A.1 aminoacylation ribozyme variant]	1.23
AUUUCCAUGGUCAUCGAGUGA [Fam2.1 aminoacylation ribozyme variant]	12
CUACUCCAAACAAUUGGUCUG [Fam1A.1 aminoacylation ribozyme variant]	0.642
AUUACCCUGGUCAUCGAGGAA [Fam2.1 aminoacylation ribozyme variant]	4.88
CUCCUUCAAACAAUCGGUCUU [Fam1A.1 aminoacylation ribozyme variant]	16.3
ACACACUUCAAGCAAUAGGUC [Fam1B.1 aminoacylation ribozyme variant]	0.901
CUUACCCUGGUCAUUGAGUGA [Fam2.1 aminoacylation ribozyme variant]	8.86
AAUCACCUAGGUCAUCGGGUA [Fam2.2 aminoacylation ribozyme variant]	10.5
CUACUUCAACCAAUCGGUCUA [Fam1A.1 aminoacylation ribozyme variant]	7
AUUCCCCUGGUCAUCGAGUGU [Fam2.1 aminoacylation ribozyme variant]	3.8
CCACACUUCCAGUAAUCGGUC [Fam1B.1 aminoacylation ribozyme variant]	0.792
AAGUUAGCUAAUGGUCGCAAG [Fam3.1 aminoacylation ribozyme variant]	1.55
AUUCACCUAGGUCAUGUGGUG [Fam2.2 aminoacylation ribozyme variant]	2.98
CUUACCCUAGUCAUCGAGUGA [Fam2.1 aminoacylation ribozyme variant]	6.07
CCGCACUUCAAGGAAUCGGUC [Fam1B.1 aminoacylation ribozyme variant]	10.8
AUUACCCCGGUCAUUGAGUGA [Fam2.1 aminoacylation ribozyme variant]	8.47
AUCCACCUAGGUCACCGGGUG [Fam2.2 aminoacylation ribozyme variant]	6.67

----------
Tested on: biotinyl-Leu-oxazolone
Method summary: self-aminoacylation, catalytic enhancement (BLO) (fold over background); higher = more active; k-Seq, kA / k0A0; sequences stand for … in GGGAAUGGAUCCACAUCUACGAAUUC…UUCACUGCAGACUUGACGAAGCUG
Fewer inactive variants are shown than the library holds.
Grouping by measured self-aminoacylation is done with the following cut points: low group (below 1), middle group (1 to below 3), high group (3 or more)

Item sequence	Experimental target	Assigned class
AAGAUUGCUAAUAGUCGAAAG [Fam3.1 aminoacylation ribozyme variant]	biotinyl-Leu-oxazolone	low group
AUUCAACUAGGUCAUCGGCUG [Fam2.2 aminoacylation ribozyme variant]	biotinyl-Leu-oxazolone	middle group
CUACUCCAAACCAUCGGUCUG [Fam1A.1 aminoacylation ribozyme variant]	biotinyl-Leu-oxazolone	middle group
CCACACUUCGAGCAAUCGGAC [Fam1B.1 aminoacylation ribozyme variant]	biotinyl-Leu-oxazolone	low group
AUUCCCCGGGUCAUCGAGUGA [Fam2.1 aminoacylation ribozyme variant]	biotinyl-Leu-oxazolone	high group
AAGUUUGCUAUUAGUCGCCAG [Fam3.1 aminoacylation ribozyme variant]	biotinyl-Leu-oxazolone	middle group
AUUCAGCUGGGUCAUCGGGUG [Fam2.2 aminoacylation ribozyme variant]	biotinyl-Leu-oxazolone	high group
AUUGCACUGGUCAUCGAGUGA [Fam2.1 aminoacylation ribozyme variant]	biotinyl-Leu-oxazolone	high group
CCUCCCUUCAAGCAAUCGGUC [Fam1B.1 aminoacylation ribozyme variant]	biotinyl-Leu-oxazolone	middle group
AUUUCCCUGGUCAUCGAGUGG [Fam2.1 aminoacylation ribozyme variant]	biotinyl-Leu-oxazolone	high group
CUAAUUCAAACAAUCCGUCUG [Fam1A.1 aminoacylation ribozyme variant]	biotinyl-Leu-oxazolone	low group
AAAUUAGCUAAUAGUCGCAAG [Fam3.1 aminoacylation ribozyme variant]	biotinyl-Leu-oxazolone	middle group
CCACACUUCAAGCAAUCGUUC [Fam1B.1 aminoacylation ribozyme variant]	biotinyl-Leu-oxazolone	low group
CUACUACAAACAACCGGUCUG [Fam1A.1 aminoacylation ribozyme variant]	biotinyl-Leu-oxazolone	low group
AUUUACCUAGGUCAUCGGGUG [Fam2.2 aminoacylation ribozyme variant]	biotinyl-Leu-oxazolone	high group
CCACACUUCAAGCAAUCCGUA [Fam1B.1 aminoacylation ribozyme variant]	biotinyl-Leu-oxazolone	low group
AUUACCGUUGUCAUCGAGUGA [Fam2.1 aminoacylation ribozyme variant]	biotinyl-Leu-oxazolone	high group
AUUCUCCUACGUCAUCGGGUG [Fam2.2 aminoacylation ribozyme variant]	biotinyl-Leu-oxazolone	high group
AAGUAUGCUAAUAGUCUCAAG [Fam3.1 aminoacylation ribozyme variant]	biotinyl-Leu-oxazolone	middle group
AAGUUUCCUAAUAGUCGCGAG [Fam3.1 aminoacylation ribozyme variant]	biotinyl-Leu-oxazolone	middle group
AUUCACCUAGGUCUGCGGGUG [Fam2.2 aminoacylation ribozyme variant]	biotinyl-Leu-oxazolone	high group
CUCCUUCAAACAAUCGGUCGG [Fam1A.1 aminoacylation ribozyme variant]	biotinyl-Leu-oxazolone	middle group
AACUUUGCUAGUAGUCGCAAG [Fam3.1 aminoacylation ribozyme variant]	biotinyl-Leu-oxazolone	middle group
AUUCACCAAGGGCAUCGGGUG [Fam2.2 aminoacylation ribozyme variant]	biotinyl-Leu-oxazolone	high group
AAGUUUGCUAAUUCUCGCAAG [Fam3.1 aminoacylation ribozyme variant]	biotinyl-Leu-oxazolone	middle group
AUUCACCUAGGUCAUCUAGUG [Fam2.2 aminoacylation ribozyme variant]	biotinyl-Leu-oxazolone	high group
GAGUUUGCUAAUAGUCGCAGG [Fam3.1 aminoacylation ribozyme variant]	biotinyl-Leu-oxazolone	middle group
AUUACGCUGGUCAUCGAGGGA [Fam2.1 aminoacylation ribozyme variant]	biotinyl-Leu-oxazolone	middle group
CAACGCUUCAAGCAAUCGGUC [Fam1B.1 aminoacylation ribozyme variant]	biotinyl-Leu-oxazolone	middle group
AUUACCCUGGUCCUCGAGAGA [Fam2.1 aminoacylation ribozyme variant]	biotinyl-Leu-oxazolone	middle group
AAGCUUGCUAAUCGUCGCAAG [Fam3.1 aminoacylation ribozyme variant]	biotinyl-Leu-oxazolone	middle group
AAGUUUGCUAAGAGUGGCAAG [Fam3.1 aminoacylation ribozyme variant]	biotinyl-Leu-oxazolone	low group
AAGUCUGCUAAAAGUCGCAAG [Fam3.1 aminoacylation ribozyme variant]	biotinyl-Leu-oxazolone	middle group
AUUCACCAAGGUCAUCGGAUG [Fam2.2 aminoacylation ribozyme variant]	biotinyl-Leu-oxazolone	low group

----------
System: biotinyl-Ile-oxazolone
Method summary: self-aminoacylation, catalytic enhancement (BIO) (fold over background); higher = more active; k-Seq, kA / k0A0; sequences stand for … in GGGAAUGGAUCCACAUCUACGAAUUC…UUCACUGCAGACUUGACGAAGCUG
Fewer inactive variants are shown than the library holds.
Grouping by measured self-aminoacylation is done with the following cut points: lower = under 0.9, middle = from 0.9 up to 3, upper = 3 and over

Item sequence	Assigned class
AUUGCACUGGUCAUCGAGUGA [Fam2.1 aminoacylation ribozyme variant]	upper
AUUCAACUAGGUCAUCUGGUG [Fam2.2 aminoacylation ribozyme variant]	middle
AUCUACCUAGGUCAUCGGGUG [Fam2.2 aminoacylation ribozyme variant]	upper
AUUACCUUGGUCAACGAGUGA [Fam2.1 aminoacylation ribozyme variant]	upper
AUUACCCUGGUCAUCGUGAGA [Fam2.1 aminoacylation ribozyme variant]	lower
CCACACUUCAAGUAAUCGGGC [Fam1B.1 aminoacylation ribozyme variant]	middle
CUACUUCAAACAAUCGUUCUA [Fam1A.1 aminoacylation ribozyme variant]	lower
CUACUUCAAACAAUCGGACUC [Fam1A.1 aminoacylation ribozyme variant]	lower
CUACUCCAAACAAUCGAUCUG [Fam1A.1 aminoacylation ribozyme variant]	lower
ACUACUCUGGUCAUCGAGUGA [Fam2.1 aminoacylation ribozyme variant]	upper
CCACACUUCAUUCAAUCGGUC [Fam1B.1 aminoacylation ribozyme variant]	lower
AAGUAUGCUAAUAGUCUCAAG [Fam3.1 aminoacylation ribozyme variant]	middle
AUUCACCAAGGUAAUCGGGUG [Fam2.2 aminoacylation ribozyme variant]	upper
GCCCACUUCAAGCAAUCGGUC [Fam1B.1 aminoacylation ribozyme variant]	middle
